# Target under test: M44-modified L NTAA target peptides (M44-L-P2-peptide)
# Procedure text: Gini coefficient of P1 selectivity from multiplex encoding heatmap
Mark each entry label 1 if its P1 score sits below 0.4, and label 0 for all others.

{"Binder": "SEQ ID NO 39 (designed binder, not shown: small tags and cut ends; large carriers) QVSVQPNFQQDKFLGRWFLAGLASNSSWAREKIAALSDAKFVVAPATDGGLNGTVTVLRKNQCETATGLLQPAGSLGSYSWRSPHDGSTLSLSVVETDYDQYALVYEQGSKGPGEDLRIAALWSRTQTPRAELKEKFTAFSKAQGFTEDTIVFLPQTDKCMTEQ", "Classification": "label 1"}
{"Binder": "SEQ ID NO 46 (designed binder, not shown: small tags and cut ends; large carriers) TVPDRSEIAGKWYVVALASNTEFHLREKDNLKVAMARISFLGEDELKVSEAVPTPNGCMKHESTWKKTSDDGEVYRSRKAKQKVEVLDTDYKSYAVIYATRVKDGRTHHWMLLYSRSPEVSPAATAIFRKLAGERNYTDEMVAMLPRQEECTVDEV", "Classification": "label 1"}
{"Binder": "SEQ ID NO 24 (designed binder, not shown: small tags and cut ends; large carriers) QVSVQPNFQQDKFLGRWFYAGLASNSSWLREKCAALSSAKAVVAPATDGGLNVTETWLRKNQCETGTELLQPAGSLGSYSFRSPHRGSTLSLSVVETDYDQYALLYRQGSKGPGEDERRALLMSRTQTPRAELKEKFTAFSKAQGFTEDTIVFLPQTDKCMTEQ", "Classification": "label 0"}

Now consider a different binder.
Enquiry: Identify whether the binder SEQ ID NO 25 (designed binder, not shown: small tags and cut ends; large carriers) QVSVQPNFQQDKFLGRWFIAGLASNSSWVREKSAALSQAKVVVAPATDGGLNVTVTVLRKNQCETYTVLLQPAGSLGSYSSRSPHFGSTVSLSVVETDYDQYALWYAQGSKGPGEDMRHAELWSRTQTPRAELKEKFTAFSKAQGFTEDTIVFLPQTDKCMTEQ records P1 score below 0.4.
Return: label 0
